Hey, just so you know, these numbers are from the supplement of paper PMC13380429.

- Tested on: Vero E6 infected with SARS-CoV-2
- ASSAY_METHOD_TEXT: inhibition of SARS-CoV-2 cytopathic effect; higher = more antiviral protection, active = above 15
- ASSAY_SETUP: 100 nM; 48 h
MEASURED_PARAMETER: inhibition of SARS-CoV-2 cytopathic effect (%)
Provide the reading as a plain figure in %.

Examples from the recorded data:
- O=C1C=CC[C@@H]2[C@H]3CCCN4CCC[C@@H](CN12)[C@@H]34 [sophocarpine]: -12.4
- OCc1cccnc1 [nicotinyl-alcohol-tartrate]: -0.17
- CC(=O)OCC(=O)[C@@]1(O)CC[C@H]2[C@@H]3CCC4=CC(=O)C=C[C@]4(C)[C@@]3(Cl)[C@@H](Cl)C[C@@]21C [dichlorisone-acetate]: -3.39
- CC(C)c1cccc2c(-c3ccccc3)cc(-c3ccc(-c4ccc(C(=O)O)cc4)[nH]3)nc12: 3.09
- COc1ccccc1S(=O)(=O)Nc1ccc2c(c1)CN(C)C(=O)N2: 0.97

Exam item: Identify measured inhibition of SARS-CoV-2 cytopathic effect associated with CC1(C)S[C@@H]2[C@H](NC(=O)COc3ccccc3)C(=O)N2[C@H]1C(=O)O [penicillin-v-potassium]
Marked response: -1.93

Exam item: Identify measured inhibition of SARS-CoV-2 cytopathic effect associated with CC(C)(C)c1cc(C=C(C#N)C#N)cc(C(C)(C)C)c1O [tyrphostin-A9]
Marked response: 4.1

Exam item: Identify measured inhibition of SARS-CoV-2 cytopathic effect associated with CCCCCNC(=N)N/N=C/c1c[nH]c2ccc(OC)cc12 [tegaserod]
Marked response: -3.2

----------
- Tested on: Vero E6 infected with SARS-CoV-2
- ASSAY_METHOD_TEXT: morphology score (similarity to uninfected cells); higher = more like uninfected cells
- ASSAY_SETUP: 24 h
Response key: class 1 means morphology score >= 0.07; class 0 means morphology score < 0.07.

* CN(C)CCCOc1nn(Cc2ccccc2)c2ccccc12 [benzydamine] (10 µM) | class 1

Exam item: # check: morphology score of CC(COc1ccccc1Cc1ccccc1)N1CCCCC1 (stereo not given) [benproperine] (10 µM) is greater than or equal to 0.07
Marked response: class 1

Exam item: # check: morphology score of C=C(CC)C(=O)c1ccc(OCC(=O)O)c(Cl)c1Cl [etacrynic-acid] (10 µM) is greater than or equal to 0.07
Marked response: class 0

Exam item: # check: morphology score of O=c1cc[nH]c(=S)[nH]1 [2-thiouracil] (10 µM) is greater than or equal to 0.07
Marked response: class 0

----------
- Tested on: Vero E6 infected with SARS-CoV-2
- ASSAY_METHOD_TEXT: inhibition of SARS-CoV-2 cytopathic effect; higher = more antiviral protection, active = above 15
- ASSAY_SETUP: 10000 nM; 48 h
MEASURED_PARAMETER: inhibition of SARS-CoV-2 cytopathic effect (%)
Provide the reading as a plain figure in %.

Examples from the recorded data:
- CCCNC(=O)N1N=C(c2ccc(N)cc2)c2cc3c(cc2C1C)OCO3 (stereo unspecified): 4.48
- NNC(=O)CN1C(=O)CN=C(c2ccccc2)c2cc(Br)ccc21: 3.71

Exam item: Identify measured inhibition of SARS-CoV-2 cytopathic effect associated with Cc1[nH]cnc1-c1ccc(Cl)cc1
Marked response: -0.36

Exam item: Identify measured inhibition of SARS-CoV-2 cytopathic effect associated with COc1cc2c(Nc3ccc(NC(=O)c4ccccc4)cc3)ncnc2cc1OCCCN1CCOCC1
Marked response: 0.98

Exam item: Identify measured inhibition of SARS-CoV-2 cytopathic effect associated with CC1CCc2c(N3CCC(O)CC3)c(F)cc3c(=O)c(C(=O)O)cn1c23 (stereo unspecified)
Marked response: 2.69

Exam item: Identify measured inhibition of SARS-CoV-2 cytopathic effect associated with COc1ccc(CCC(=O)Nc2nc3ccc(Cl)cc3s2)cc1OC
Marked response: 0.38

Exam item: Identify measured inhibition of SARS-CoV-2 cytopathic effect associated with Nc1nc(=O)c2c([nH]1)NCC(CNc1ccc(C(=O)N[C@@H](CCC(=O)O)C(=O)O)cc1)N2C=O (stereo partly specified)
Marked response: -0.745

Exam item: Identify measured inhibition of SARS-CoV-2 cytopathic effect associated with CCOC(=O)C1=C(N)Oc2ccc(Br)cc2C1C(C#N)C(=O)OCC (stereo unspecified)
Marked response: 2.46

Exam item: Identify measured inhibition of SARS-CoV-2 cytopathic effect associated with Cc1cc(NC(=O)C(c2ccccc2)N2CCCc3ccccc32)no1 (stereo unspecified)
Marked response: 3.91

Exam item: Identify measured inhibition of SARS-CoV-2 cytopathic effect associated with C[C@H](Nc1ncnc2[nH]cnc12)c1nc2ccc(F)cc2c(=O)n1-c1ccccc1
Marked response: -5.35

Exam item: Identify measured inhibition of SARS-CoV-2 cytopathic effect associated with O=C(Nc1cccc(Nc2ncc(Br)c(NCCc3cnc[nH]3)n2)c1)N1CCCC1
Marked response: -4.48

Exam item: Identify measured inhibition of SARS-CoV-2 cytopathic effect associated with CC(=C(CCO)SSCC1CCCO1)N(C=O)Cc1cnc(C)nc1N (stereo in doubt)
Marked response: -2.11

Exam item: Identify measured inhibition of SARS-CoV-2 cytopathic effect associated with COc1cccc(C=NCCN=Cc2cccc(OC)c2[O-])c1[O-].[Cl-].[Mn+3]
Marked response: 14.1

Exam item: Identify measured inhibition of SARS-CoV-2 cytopathic effect associated with Cc1[nH]c(=O)c(C#N)cc1-c1ccc2nccn2c1
Marked response: -0.84

Exam item: Identify measured inhibition of SARS-CoV-2 cytopathic effect associated with CC1(C)CCC2=C(O1)c1ccccc1C(=O)C2=O
Marked response: 10.9

Exam item: Identify measured inhibition of SARS-CoV-2 cytopathic effect associated with CCOC(=O)[C@H](Cc1ccc([N+](=O)[O-])cc1)NC(=O)c1ccccc1
Marked response: 0.3

Exam item: Identify measured inhibition of SARS-CoV-2 cytopathic effect associated with C=CCNc1ncnc2ccc(Br)cc12
Marked response: 0.96

Exam item: Identify measured inhibition of SARS-CoV-2 cytopathic effect associated with O=C1CCC(N2C(=O)c3ccccc3C2=O)C(=O)N1 (stereo unspecified) [thalidomide]
Marked response: -4.45

Exam item: Identify measured inhibition of SARS-CoV-2 cytopathic effect associated with CC(C)OC(=O)[C@H](C)N[P@@](=O)(OC[C@H]1O[C@@H](n2ccc(=O)[nH]c2=O)[C@](C)(F)[C@@H]1O)Oc1ccccc1
Marked response: 0.32

Exam item: Identify measured inhibition of SARS-CoV-2 cytopathic effect associated with Cc1c(CN(C)C(=O)/C=C/c2cnc3c(c2)CCC(=O)N3)oc2ccccc12
Marked response: -1.4

Exam item: Identify measured inhibition of SARS-CoV-2 cytopathic effect associated with C[C@H](CCC(=O)O)[C@H]1CC[C@H]2[C@@H]3[C@@H](O)C[C@@H]4C[C@H](O)CC[C@]4(C)[C@H]3CC[C@]12C
Marked response: 0.145

Exam item: Identify measured inhibition of SARS-CoV-2 cytopathic effect associated with CNC(=O)c1ccc(N2C(=S)N(c3cnc(C#N)c(C(F)(F)F)c3)C(=O)C23CCC3)cc1F [apalutamide]
Marked response: 1.02

Exam item: Identify measured inhibition of SARS-CoV-2 cytopathic effect associated with CC(C)N1Cc2cc(S(C)(=O)=O)ccc2N(CCN2CC=C(c3c[nH]c4cc(F)ccc34)CC2)S1(=O)=O
Marked response: 4

Exam item: Identify measured inhibition of SARS-CoV-2 cytopathic effect associated with CNC[C@@H]1CC[C@@H](N)[C@@H](O[C@H]2[C@H](O)[C@@H](O[C@H]3OC[C@](C)(O)[C@H](NC)[C@H]3O)[C@H](N)C[C@@H]2N)O1
Marked response: -0.03

Exam item: Identify measured inhibition of SARS-CoV-2 cytopathic effect associated with CCCC(=O)N1CCCN(c2nc(N)c3cc(OC)c(OC)cc3n2)CC1
Marked response: 0.07

Exam item: Identify measured inhibition of SARS-CoV-2 cytopathic effect associated with CC(C)c1cccc2c(-c3ccccc3)cc(-c3ccc(-c4ccc(C(=O)O)cc4)[nH]3)nc12
Marked response: 3.56

----------
- Test system: Vero E6 infected with SARS-CoV-2
- ASSAY_METHOD_TEXT: inhibition of SARS-CoV-2 cytopathic effect; higher = more antiviral protection, active = above 15
- ASSAY_SETUP: 1 nM; 48 h
Reported inhibition of SARS-CoV-2 cytopathic effect values follow for various molecules

Examples from the recorded data:
* COc1ccc(/C=C/C(=O)O)cc1 [trans-4-methoxycinnamic-acid] | 1.02% (inactive)
* CC(=O)OCC(=O)[C@@]1(O)CC[C@H]2[C@@H]3CCC4=CC(=O)CC[C@]4(C)[C@@]3(F)[C@@H](O)C[C@@]21C | -1.46% (inactive)
* CN1C(=O)N(C)C2C1N(C)C(=O)N2C (centres undefined) [mebicar] | -5.8% (inactive)
* O=C(OC(C(F)(F)F)C(F)(F)F)N1CCN(Cc2cccc(Oc3ccccc3)c2)CC1 | 3.59% (inactive)
* Cc1ncc(C[n+]2csc(CCOP(=O)(O)OP(=O)(O)O)c2C)c(N)n1 [thiamine-pyrophosphate] | 2.5% (inactive)

Exam item: Find inhibition of SARS-CoV-2 cytopathic effect for O=c1cc(-c2cccc3c2Sc2ccccc2S3)oc(N2CCOCC2)c1 on Vero E6 infected with SARS-CoV-2 and write it down.
Marked response: 2.07% (inactive)

Exam item: Find inhibition of SARS-CoV-2 cytopathic effect for CNc1nc(NCc2ccc(NS(C)(=O)=O)cc2Cl)cc(-c2ccccn2)n1 on Vero E6 infected with SARS-CoV-2 and write it down.
Marked response: -1.79% (inactive)
